Data origin: PubChem BioAssay (NCI)

Listed below: TGI values for each entry.
Tested on: HOP-92 NSCLC
Test: NCI tumour cell line growth inhibition, 48 h

{"columns": ["COMPOUND", "TGI"],
 "data": [
  ["CN(C(=O)C12C3C4C1C1C2C3C41C(=O)O)C(C)(C)C (centres undefined)", "> 100 µM"],
  ["COC(=O)C1=C(C(=O)OC)C2(c3ccccc3)c3ccccc3C(=O)C1N2C1CCCCC1 (centres undefined)", "> 100 µM"],
  ["Cc1cccc2c1CC(C1OC(=O)c3c(C)cccc31)C2=O (centres undefined)", "> 100 µM"]
]}

*Q* Short answer please: TGI, HOP-92 NSCLC, entry `N#Cc1c(Cl)cccc1Oc1ccc(S(=O)(=O)/N=C(\NO)Nc2ccc(Cl)cc2)cc1`
*A* 24.6 µM

*Q* Short answer please: TGI, HOP-92 NSCLC, entry `CN(O)C(=O)c1ccc(OCc2cccc(Cl)c2)cc1`
*A* > 100 µM

*Q* Short answer please: TGI, HOP-92 NSCLC, entry `COc1cc2c3c(n(CCCO)c(=O)c2cc1OC)-c1cc2c(cc1C3=O)OCO2`
*A* 11.4 µM
